Each recorded value in this set is attributed to ChEMBL document CHEMBL2163241.

The following molecules are listed with their measured Ratio values.
Experiment: Inhibition of trypsin at 25 uM assessed as Kinact/Ki ratio incubated for 15 mins by spectrofluorometry

Field: example entries. Status: answers known.
CSc1ccc(OP(=O)(Oc2ccc(SC)cc2)C(NC(=O)[C@@H]2CCCN2C(=O)[C@@H](NC(=O)COc2ccc(OCC(=O)O)cc2)C(C)C)C(C)C)cc1 (mixture of isomers) : < 50 M⁻¹ s⁻¹
CSc1ccc(OP(=O)(Oc2ccc(SC)cc2)C(NC(=O)[C@@H]2CCCN2C(=O)[C@@H](NC(=O)Cn2ccc(=O)n(CC(=O)O)c2=O)C(C)C)C(C)C)cc1 (mixture of isomers) : 130 M⁻¹ s⁻¹
CSc1ccc(OP(=O)(Oc2ccc(SC)cc2)C(NC(=O)[C@@H]2CCCN2C(=O)CNC(=O)OCc2ccccc2)C(C)C)cc1 (mixture of isomers) : < 50 M⁻¹ s⁻¹
CC(C)C(NC(=O)[C@@H]1CCCN1C(=O)[C@@H](NC(=O)OC(C)(C)C)C(C)C)P(=O)(Oc1ccc(Cl)cc1)Oc1ccc(Cl)cc1 (mixture of isomers) : < 50 M⁻¹ s⁻¹

For the molecule CSCC[C@H](NC(=O)OCc1ccccc1)C(=O)N1CCC[C@H]1C(=O)NC(C(C)C)P(=O)(Oc1ccc(SC)cc1)Oc1ccc(SC)cc1 (mixture of isomers) , what Ratio is on record?
< 50 M⁻¹ s⁻¹
